Where these numbers come from: ChEMBL document CHEMBL1138692

tested on: MT4; experiment: Antiviral activity against PI resistant virus D545701 in MT-4 cell line; type: functional, cell-based; details: Homo sapiens
Catalogue of compounds with associated pIC50
Entry type: numeric. Quantity: pIC50, the -log10 of concentration in molar units.

COC(=O)NCCCC(C)(C)CN(C[C@@H](O)[C@H](Cc1ccccc1)NC(=O)O[C@H]1CO[C@H]2OCC[C@H]21)S(=O)(=O)c1ccc(N)cc1 | 7.02

Exam item: // pIC50 lookup, key: CC(C)(CCCN)CN(C[C@@H](O)[C@H](Cc1ccccc1)NC(=O)O[C@H]1CO[C@H]2OCC[C@H]21)S(=O)(=O)c1ccc2c(c1)OCO2
Marked response: 6.14

====

system: MT4; experiment: Antiviral activity against wild-type HIV virus (HXB2) was determined in MT-4 cell line; type: functional, cell-based; settings: Homo sapiens
experimental readout: IC50
The reply should read as a number followed by its unit.

CNC(=O)NCCCC(C)(C)CN(C[C@@H](O)[C@H](Cc1ccccc1)NC(=O)O[C@H]1CO[C@H]2OCC[C@H]21)S(=O)(=O)c1ccc2c(c1)OCO2 | 38 nM
Cc1c(O)cccc1C(=O)N[C@@H](CSc1ccccc1)[C@H](O)CN1C[C@H]2CCCC[C@H]2C[C@H]1C(=O)NC(C)(C)C | 320 nM
COC(=O)NCCCC(C)(C)CN(C[C@@H](O)[C@H](Cc1ccccc1)NC(=O)O[C@H]1CO[C@H]2OCC[C@H]21)S(=O)(=O)c1ccc2c(c1)OCO2 | 4.7 nM
COC(=O)NCCC(C)(C)CN(C[C@@H](O)[C@H](Cc1ccccc1)NC(=O)O[C@H]1CO[C@H]2OCC[C@H]21)S(=O)(=O)c1ccc2c(c1)OCO2 | 1.4 nM

Exam item: // IC50 lookup, key: CC(=O)NCCCC(C)(C)CN(C[C@@H](O)[C@H](Cc1ccccc1)NC(=O)O[C@H]1CO[C@H]2OCC[C@H]21)S(=O)(=O)c1ccc2c(c1)OCO2
Marked response: 23 nM

Exam item: // IC50 lookup, key: CC(C)CN(C[C@@H](O)[C@H](Cc1ccccc1)NC(=O)O[C@H]1CCOC1)S(=O)(=O)c1ccc(N)cc1
Marked response: 130 nM

====

Human immunodeficiency virus type 1 protease (Human immunodeficiency virus 1): recorded Ki for assorted compounds
The reply should read as a number followed by its unit.

Use these answered entries as a reference point.
COC(=O)NCCCC(C)(C)CN(C[C@@H](O)[C@H](Cc1ccccc1)NC(=O)O[C@H]1CO[C@H]2OCC[C@H]21)S(=O)(=O)c1cccc(N)c1 | 0.21 pM
CC(C)CN(C[C@@H](O)[C@H](Cc1ccccc1)NC(=O)O[C@H]1CCOC1)S(=O)(=O)c1ccc(N)cc1 | 57 pM
COC(=O)NCCCC(C)(C)CN(C[C@@H](O)[C@H](Cc1ccccc1)NC(=O)O[C@H]1CO[C@H]2OCC[C@H]21)S(=O)(=O)c1ccc(N)cc1 | 0.26 pM
COC(=O)NCCCC(C)(C)CN(C[C@@H](O)[C@H](Cc1ccccc1)NC(=O)O[C@H]1CO[C@H]2OCC[C@H]21)S(=O)(=O)c1ccc2c(c1)OCO2 | 0.52 pM

Exam item: // Ki lookup, key: COC(=O)NCCC(C)(C)CN(C[C@@H](O)[C@H](Cc1ccccc1)NC(=O)O[C@H]1CO[C@H]2OCC[C@H]21)S(=O)(=O)c1ccc2c(c1)OCO2
Marked response: 0.16 pM

Exam item: // Ki lookup, key: COC(=O)NCCCCCC(C)(C)CN(C[C@@H](O)[C@H](Cc1ccccc1)NC(=O)O[C@H]1CO[C@H]2OCC[C@H]21)S(=O)(=O)c1ccc2c(c1)OCO2
Marked response: 0.12 pM
